B1: library; a variant is named by its letters at N, in order (parent)
chain: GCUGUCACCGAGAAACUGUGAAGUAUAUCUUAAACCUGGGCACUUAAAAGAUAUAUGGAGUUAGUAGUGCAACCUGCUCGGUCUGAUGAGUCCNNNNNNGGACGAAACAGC

- Variants of: B1
- METHOD: normalized RNA/DNA level without ligand (relative to sTRSVctl = 100) (log10 (% of sTRSVctl)); HEK293T; ligand: cyclic di-GMP (c-di-GMP-II aptamer); higher = less ribozyme self-cleavage, higher mRNA level
- ASSAY CONDITIONS: reporter: mCherry (pCS4076), ligand present: no
ENDPOINT NAME: normalized RNA/DNA level without ligand (log10)
Numbers only.

Before answering, review these 5 worked examples.
{"CHAIN SEQUENCE": "GCUGUCACCGAGAAACUGUGAAGUAUAUCUUAAACCUGGGCACUUAAAAGAUAUAUGGAGUUAGUAGUGCAACCUGCUCGGUCUGAUGAGUCCUACUACGGACGAAACAGC [UACUAC]", "VALUE": 1.75}
{"CHAIN SEQUENCE": "GCUGUCACCGAGAAACUGUGAAGUAUAUCUUAAACCUGGGCACUUAAAAGAUAUAUGGAGUUAGUAGUGCAACCUGCUCGGUCUGAUGAGUCCAAUGCCGGACGAAACAGC [AAUGCC]", "VALUE": 1.73}
{"CHAIN SEQUENCE": "GCUGUCACCGAGAAACUGUGAAGUAUAUCUUAAACCUGGGCACUUAAAAGAUAUAUGGAGUUAGUAGUGCAACCUGCUCGGUCUGAUGAGUCCUGGCGGGGACGAAACAGC [UGGCGG]", "VALUE": 1.85}
{"CHAIN SEQUENCE": "GCUGUCACCGAGAAACUGUGAAGUAUAUCUUAAACCUGGGCACUUAAAAGAUAUAUGGAGUUAGUAGUGCAACCUGCUCGGUCUGAUGAGUCCAGAGACGGACGAAACAGC [AGAGAC]", "VALUE": 1.56}
{"CHAIN SEQUENCE": "GCUGUCACCGAGAAACUGUGAAGUAUAUCUUAAACCUGGGCACUUAAAAGAUAUAUGGAGUUAGUAGUGCAACCUGCUCGGUCUGAUGAGUCCGAAGAUGGACGAAACAGC [GAAGAU]", "VALUE": 1.5}

# per-item lookup of normalized RNA/DNA level without ligand (log10); items listed below
1. GCUGUCACCGAGAAACUGUGAAGUAUAUCUUAAACCUGGGCACUUAAAAGAUAUAUGGAGUUAGUAGUGCAACCUGCUCGGUCUGAUGAGUCCUAAGCCGGACGAAACAGC [UAAGCC]
2. GCUGUCACCGAGAAACUGUGAAGUAUAUCUUAAACCUGGGCACUUAAAAGAUAUAUGGAGUUAGUAGUGCAACCUGCUCGGUCUGAUGAGUCCGUCCGCGGACGAAACAGC [GUCCGC]

[1.78, 1.84]

# per-item lookup of normalized RNA/DNA level without ligand (log10); items listed below
1. GCUGUCACCGAGAAACUGUGAAGUAUAUCUUAAACCUGGGCACUUAAAAGAUAUAUGGAGUUAGUAGUGCAACCUGCUCGGUCUGAUGAGUCCACCCUGGGACGAAACAGC [ACCCUG]
2. GCUGUCACCGAGAAACUGUGAAGUAUAUCUUAAACCUGGGCACUUAAAAGAUAUAUGGAGUUAGUAGUGCAACCUGCUCGGUCUGAUGAGUCCAUCUCAGGACGAAACAGC [AUCUCA]
3. GCUGUCACCGAGAAACUGUGAAGUAUAUCUUAAACCUGGGCACUUAAAAGAUAUAUGGAGUUAGUAGUGCAACCUGCUCGGUCUGAUGAGUCCGACCAAGGACGAAACAGC [GACCAA]
4. GCUGUCACCGAGAAACUGUGAAGUAUAUCUUAAACCUGGGCACUUAAAAGAUAUAUGGAGUUAGUAGUGCAACCUGCUCGGUCUGAUGAGUCCGUGAGGGGACGAAACAGC [GUGAGG]
5. GCUGUCACCGAGAAACUGUGAAGUAUAUCUUAAACCUGGGCACUUAAAAGAUAUAUGGAGUUAGUAGUGCAACCUGCUCGGUCUGAUGAGUCCUUAGGGGGACGAAACAGC [UUAGGG]

[1.67, 1.67, 1.52, 1.61, 1.65]
